Target: human recombinant caspase-2 (Homo sapiens)
Construct: purchased BIOMOL
Sequence (P42575 170-333 limits assumed): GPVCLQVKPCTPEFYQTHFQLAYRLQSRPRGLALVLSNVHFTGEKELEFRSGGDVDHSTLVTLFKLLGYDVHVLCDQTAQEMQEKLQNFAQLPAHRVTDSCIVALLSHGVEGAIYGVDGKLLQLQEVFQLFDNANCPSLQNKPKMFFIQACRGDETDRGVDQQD
Sequence (P42575 348-452 limits assumed): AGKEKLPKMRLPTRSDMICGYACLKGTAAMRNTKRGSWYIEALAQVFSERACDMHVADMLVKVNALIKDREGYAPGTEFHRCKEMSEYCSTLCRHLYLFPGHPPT
Assay: In vitro caspase-2 cleavage assay (Ac-VDVAD-AMC substrate)
Type: biochemical
Parameters: key: group 1 referred to inhibitors that were relatively more active than VDVAD(SEQ ID NO:9)-based inhibitors against caspase-2 at lower doses, but with similar IC50 values; group 2 referred to VDVAD(SEQ ID NO:9)-based inhibitor with characteristic sigmoid dose-response; group 3 referred to pentapetidic-based inhibitors that were less active than VDVAD(SEQ ID NO:9)-based inhibitors against caspase-2 at lower doses and that exhibited higher IC50
Conditions: Table 4
Peptide text beside a SMILES is read from it.
EXPERIMENTAL ENDPOINT: Group (pattern of caspase-2 inhibition curve)

INSERT INTO measurements (molecule, study_target, value_observed) VALUES
  ('CC(=O)N[C@H](C(=O)N[C@@H](CC(=O)O)C(=O)N[C@@H](CCC(=O)O)C(=O)N[C@@H](CO)C(=O)N[C@H](C=O)CC(=O)O)C(C)C [Compound 7, Ac-VDESD(SEQ ID NO:4)-cho] (Ac-VDESD-aldehyde)', 'human recombinant caspase-2 (Homo sapiens)', 3);

(I) CC(=O)N[C@@H](CC(C)C)C(=O)N[C@@H](CC(=O)O)C(=O)N[C@@H](CCC(=O)O)C(=O)NCC(=O)N[C@H](C=O)CC(=O)O [Compound 26, Ac-LDEGD(SEQ ID NO:2)-cho] (Ac-LDEGD-aldehyde)
(II) CC(=O)N[C@@H](CC(C)C)C(=O)N[C@@H](CC(=O)O)C(=O)N[C@@H](CCC(=O)O)C(=O)N[C@@H](C)C(=O)N[C@H](C=O)CC(=O)O [Compound 14, Ac-LDEAD(SEQ ID NO:7)-cho] (Ac-LDEAD-aldehyde)
## Task Higher Group (pattern of caspase-2 inhibition curve): I or II ? Identify your pick by its label.
## Result I

###

Target: human recombinant caspase-2 (Homo sapiens)
Construct: purchased BIOMOL
Assay: In vitro caspase-2 cleavage assay (Ac-VDVAD-AMC substrate)
Assay type: biochemical
Design: key: group 1 referred to inhibitors that were relatively more active than VDVAD(SEQ ID NO:9)-based inhibitors against caspase-2 at lower doses, but with similar IC50 values; group 2 referred to VDVAD(SEQ ID NO:9)-based inhibitor with characteristic sigmoid dose-response; group 3 referred to pentapetidic-based inhibitors that were less active than VDVAD(SEQ ID NO:9)-based inhibitors against caspase-2 at lower doses and that exhibited higher IC50
Details: Table 4
Peptide text beside a SMILES is read from it.
EXPERIMENTAL ENDPOINT: Group (pattern of caspase-2 inhibition curve)

INSERT INTO results (compound, value_observed) VALUES
  ('CC(=O)N[C@@H](Cc1ccccc1)C(=O)N[C@@H](CC(=O)O)C(=O)N[C@@H](CCC(=O)O)C(=O)N[C@@H](CO)C(=O)N[C@H](C=O)CC(=O)O [Compound 3, Ac-FDESD(SEQ ID NO:6)-cho] (Ac-FDESD-aldehyde)', 3);

(A) CC(=O)N[C@H](C(=O)N[C@@H](CC(=O)O)C(=O)N[C@@H](CCC(=O)O)C(=O)N[C@@H](C)C(=O)N[C@H](C=O)CC(=O)O)C(C)C [Compound 20, Ac-VDEAD(SEQ ID NO:1)-cho] (Ac-VDEAD-aldehyde)
(B) CC(=O)N[C@@H](CC(C)C)C(=O)N[C@@H](CC(=O)O)C(=O)N[C@@H](CCC(=O)O)C(=O)N[C@@H](CCCCN)C(=O)N[C@H](C=O)CC(=O)O [Compound 27, Ac-LDEKD(SEQ ID NO:5)-cho] (Ac-LDEKD-aldehyde)
(C) CC(=O)N[C@H](C(=O)N[C@@H](CC(=O)O)C(=O)N[C@H](C(=O)N[C@@H](C)C(=O)N[C@H](C=O)CC(=O)O)C(C)C)C(C)C [Compound 8, Ac-VDVAD-cho, reference compound] (Ac-VDVAD-aldehyde)
## Task Output the entries ranked by Group (pattern of caspase-2 inhibition curve) from maximum down to minimum. The labels, placed in the requested order, form the answer.
## Result B, C, A
